- tgt: Motilin Receptor (Oryctolagus cuniculus)
- Construct: strips of longitudinal smooth muscle were sliced from the segments; from tissue; host or cells: rabbit duodenum longitudinal smooth muscle strips
- Sequence (G1T803 1-400): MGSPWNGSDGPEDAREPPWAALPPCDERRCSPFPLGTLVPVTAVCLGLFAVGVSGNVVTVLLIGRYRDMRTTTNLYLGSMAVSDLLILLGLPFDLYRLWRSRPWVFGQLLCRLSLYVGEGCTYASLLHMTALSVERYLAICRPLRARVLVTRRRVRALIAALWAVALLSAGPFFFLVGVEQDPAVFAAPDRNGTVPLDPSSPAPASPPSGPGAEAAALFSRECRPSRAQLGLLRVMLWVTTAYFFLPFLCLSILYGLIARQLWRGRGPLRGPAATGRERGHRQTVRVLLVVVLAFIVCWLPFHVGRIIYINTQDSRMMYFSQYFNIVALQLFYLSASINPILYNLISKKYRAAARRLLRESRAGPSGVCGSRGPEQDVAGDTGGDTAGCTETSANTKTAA
- test-summary: Tissue based assay for motilin agonist potency (rabbit duodenum contractility)
- Format: cell-based
- condition-label: rabbit duodenum strips, contraction normalized to 1 μM carbachol; read-out: Motilin Receptor Agonist Activity (EC50)
Catalogue of EC50 values

CC[C@H]1OC(=O)[C@H](C)[C@@H](O[C@H]2C[C@@](C)(OC)[C@@H](O)[C@H](C)O2)[C@H](C)[C@@H](O[C@@H]2O[C@H](C)C[C@H](N(C)C(C)C)[C@H]2O)[C@](C)(O)C[C@@H](C)[C@H](OCC(=O)NOC)[C@H](C)[C@@H](O)[C@]1(C)O [Compound A-69]	92 nM
CC[C@H]1OC(=O)[C@H](C)[C@@H](O[C@H]2C[C@@](C)(OC)[C@@H](O)[C@H](C)O2)[C@H](C)[C@@H](O[C@@H]2O[C@H](C)C[C@H](N(C)C(C)C)[C@H]2O)[C@](C)(O)C[C@@H](C)[C@H](OCc2ncc[nH]2)[C@H](C)[C@@H](O)[C@]1(C)O [Compound A-62]	63 nM
CC[C@H]1OC(=O)[C@H](C)[C@@H](O[C@H]2C[C@@](C)(OC)[C@@H](O)[C@H](C)O2)[C@H](C)[C@@H](O[C@@H]2O[C@H](C)C[C@H](N(C)C(C)C)[C@H]2O)[C@](C)(O)C[C@@H](C)[C@H](OCC(=O)NC2CCC2)[C@H](C)[C@@H](O)[C@]1(C)O [Compound A-45]	28 nM

[Q] Name the recorded EC50 of the item CC[C@H]1OC(=O)[C@H](C)[C@@H](O[C@H]2C[C@@](C)(OC)[C@@H](O)[C@H](C)O2)[C@H](C)[C@@H](O[C@@H]2O[C@H](C)C[C@H](N(C)C3CCC3)[C@H]2O)[C@](C)(O)C[C@@H](C)[C@H](OC)[C@H](C)[C@@H](O)[C@]1(C)O [Compound A-47] in your answer.
[A] 220 nM

[Q] Name the recorded EC50 of the item CC[C@H]1OC(=O)[C@H](C)[C@@H](O[C@H]2C[C@@](C)(OC)[C@@H](O)[C@H](C)O2)[C@H](C)[C@@H](O[C@@H]2O[C@H](C)C[C@H](N(C)C3CCC3)[C@H]2O)[C@](C)(O)C[C@@H](C)[C@H](OCC(=O)OC)[C@H](C)[C@@H](O)[C@]1(C)O [Compound A-23] in your answer.
[A] 560 nM

[Q] Name the recorded EC50 of the item CC[C@H]1OC(=O)[C@H](C)[C@@H](O[C@H]2C[C@@](C)(OC)[C@@H](O)[C@H](C)O2)[C@H](C)[C@@H](O[C@@H]2O[C@H](C)C[C@H](N(C)C(C)C)[C@H]2O)[C@](C)(O)C[C@@H](C)[C@H](OCC(=O)N(C)C)[C@H](C)[C@@H](O)[C@H]1C [Compound A-72] in your answer.
[A] 270 nM

The reported measurements were obtained from patent US7582611B2.
